Source: patent US20230043985A1

Experiment: Phase 1 clinical PK of Compound 1 in patients (plasma, LC-MS/MS), Study NCT03854227
Type: in vivo, human
Settings: human, plasma; 2 mg BID oral, steady state (day 15), patients, N=2; read-out: Cmax (mean maximum daily concentration)
Quantity Name: Cmax at 15 day (ng/mL)
Field format: number, assumed ng/mL, no unit text.

[in] Give Cmax at 15 day for Cc1ncnc2c1ccn2[C@@H]1C[C@H](Oc2cc(C(F)F)c(F)c3c2CNCC3)[C@@H](O)[C@H]1O [Compound 1]
[out] 26.9
